Entry source: ChEMBL document CHEMBL5634203

Record form. Attribute: Kp uu. Fill in for each entry.
# Run description: Unbound brain-to-plasma concentration ratio in Sprague-Dawley rat brain at 1 mg/kg, iv by LC-MS/MS analysis
# Format: ADME, organism-based
# Settings: read-out: K(p,uu,brain)
Returns: the value as a bare number; no unit string appended.

So, CC(C)Oc1cc2nn(C34COC(C)(C3)C4)cc2cc1C(=O)Nc1cccn(C)c1=O ? Its Kp uu was 1

Short answer for CC(C)Oc1nc2nn(C34COC(C)(C3)C4)cc2cc1C(=O)Nc1cccn([C@H]2C[C@H]2F)c1=O : Kp uu was 0.7

###

Exercise: for every item that follows, state its recorded solubility kinetic at 24 h.
# Run description: Kinetic solubility of compound in DMSO at pH 6.8 incubated for 24 hrs
# Format: physicochemical
# Settings: read-out: Kinetic_solubility
Note: unit µg/mL is implicit; provide only the numeric part.

solubility kinetic at 24 h measured on CC(C)Oc1cc2nn(C34COC(C)(C3)C4)cc2cc1C(=O)Nc1cccn([C@H]2C[C@H]2F)c1=O = 56

Looking up CC(C)Oc1nc2nn(C34COC(C)(C3)C4)cc2cc1C(=O)Nc1cccn([C@@H]2C[C@@H]2F)c1=O , I see its solubility kinetic at 24 h listed as 6.6

Memo: CC(C)Oc1cc2nn(C34COC(C)(C3)C4)cc2cc1C(=O)Nc1cccn(C)c1=O , reported solubility kinetic at 24 h: 58

solubility kinetic at 24 h measured on CC(C)Oc1nc2nn(C34COC(C)(C3)C4)cc2cc1C(=O)Nc1cccn([C@H]2C[C@H]2F)c1=O = 25
